B1: ZBTB22 (parent)
chain: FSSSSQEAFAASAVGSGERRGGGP

Variants of: B1
method.description: protein stability index of a GFP-peptide fusion (GPS, HEK-293T) (PSI 1-6); higher = more stable;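 also: lentivirally expressed fusions sorted by FACS into six bins by GFP to DsRed ratio, PSI derived from sequencing read proportions per bin multiplied by bin number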
reported.conditions: c terminus: a fixed tail appended
Mark False for protein stability index values under 3, and True for everything at or above.

Prompt: Please check the record `E7I` and state if its protein stability index is at or above 3.
Completion: False

Prompt: Please check the record `R19I` and state if its protein stability index is at or above 3.
Completion: True

Prompt: Please check the record `E18F` and state if its protein stability index is at or above 3.
Completion: False

Prompt: Please check the record `S5R` and state if its protein stability index is at or above 3.
Completion: True

Prompt: Please check the record `E18L` and state if its protein stability index is at or above 3.
Completion: False

Prompt: Please check the record `E7M` and state if its protein stability index is at or above 3.
Completion: False

Prompt: Please check the record `S3A` and state if its protein stability index is at or above 3.
Completion: True

Prompt: Please check the record `S16A` and state if its protein stability index is at or above 3.
Completion: True

Prompt: Please check the record `F9L` and state if its protein stability index is at or above 3.
Completion: True

Prompt: Please check the record `F9G` and state if its protein stability index is at or above 3.
Completion: True

Prompt: Please check the record `F9W` and state if its protein stability index is at or above 3.
Completion: False

Prompt: Please check the record `G15K` and state if its protein stability index is at or above 3.
Completion: True

Prompt: Please check the record `A11R` and state if its protein stability index is at or above 3.
Completion: True

Prompt: Please check the record `G22H` and state if its protein stability index is at or above 3.
Completion: True

Prompt: Please check the record `G17L` and state if its protein stability index is at or above 3.
Completion: True

Prompt: Please check the record `S2A` and state if its protein stability index is at or above 3.
Completion: False

Prompt: Please check the record `A8I` and state if its protein stability index is at or above 3.
Completion: False

Prompt: Please check the record `R20P` and state if its protein stability index is at or above 3.
Completion: True

Prompt: Please check the record `F1W` and state if its protein stability index is at or above 3.
Completion: True

Prompt: Please check the record `F9R` and state if its protein stability index is at or above 3.
Completion: True

Prompt: Please check the record `E7R` and state if its protein stability index is at or above 3.
Completion: False

Prompt: Please check the record `F9P` and state if its protein stability index is at or above 3.
Completion: True

Prompt: Please check the record `R20L` and state if its protein stability index is at or above 3.
Completion: True

Prompt: Please check the record `S16V` and state if its protein stability index is at or above 3.
Completion: True

Prompt: Please check the record `V14D` and state if its protein stability index is at or above 3.
Completion: True

Prompt: Please check the record `A8C` and state if its protein stability index is at or above 3.
Completion: False

Prompt: Please check the record `R20T` and state if its protein stability index is at or above 3.
Completion: True

Prompt: Please check the record `G22C` and state if its protein stability index is at or above 3.
Completion: True

Prompt: Please check the record `S12A` and state if its protein stability index is at or above 3.
Completion: True

Prompt: Please check the record `A11V` and state if its protein stability index is at or above 3.
Completion: False

Prompt: Please check the record `F9K` and state if its protein stability index is at or above 3.
Completion: True

Prompt: Please check the record `S5A` and state if its protein stability index is at or above 3.
Completion: False

Prompt: Please check the record `S3W` and state if its protein stability index is at or above 3.
Completion: False

Prompt: Please check the record `S12E` and state if its protein stability index is at or above 3.
Completion: True

Prompt: Please check the record `V14R` and state if its protein stability index is at or above 3.
Completion: True

Prompt: Please check the record `A13N` and state if its protein stability index is at or above 3.
Completion: False

Prompt: Please check the record `R20W` and state if its protein stability index is at or above 3.
Completion: False

Prompt: Please check the record `P24Q` and state if its protein stability index is at or above 3.
Completion: False

Prompt: Please check the record `G22I` and state if its protein stability index is at or above 3.
Completion: True

Prompt: Please check the record `A11G` and state if its protein stability index is at or above 3.
Completion: False

Prompt: Please check the record `E18I` and state if its protein stability index is at or above 3.
Completion: False

Prompt: Please check the record `V14P` and state if its protein stability index is at or above 3.
Completion: True

Prompt: Please check the record `G23I` and state if its protein stability index is at or above 3.
Completion: False

Prompt: Please check the record `A8Y` and state if its protein stability index is at or above 3.
Completion: False
